target: Torsin-1A (Homo sapiens); assay: torsin A binders from cell lysate, primary screen, small-molecule microarray, wild-type, 635/667 nm (AID 1149); conditions: COS7 hTOR1A-WT lysate, 635 nm fluorescence, higher = more signal
attribute measured: composite z-score

>  <compound>
NCCCCCNC(=O)[C@H]1C[C@H]2C(=O)NCC(=O)N2[C@H]1c1cccc(OCCO)c1

>  <observed value>
0.483

$$$$
>  <compound>
Cc1ccc(S[C@]2(C(=O)O)CC(=O)N(C3Cc4ccccc4C3)[C@@H]2c2ccc(CO)cc2I)cc1

>  <observed value>
-0.594

$$$$
>  <compound>
CCN(CC)c1ccc(N2CC=CC34O[C@@H]5C=CCCOC(=O)C5[C@H]3C(=O)N(CCCCCO)[C@@H]4C2=O)cc1 (stereo partly specified)

>  <observed value>
0.846

$$$$
>  <compound>
CCOC(=O)[C@H]1C[C@H]2O[C@@]23C[C@H]1C(=O)N1CCCC1[C@@H]3O[Si](C)(C)C(C)(C)C (stereo partly specified)

>  <observed value>
-0.235

$$$$
>  <compound>
COc1ccc(CCN2C(=O)[C@@]3(Cc4ccccc42)c2ccccc2C(=O)N(Cc2ccccc2Cl)[C@H]3c2ccc(CO)cc2)cc1

>  <observed value>
-0.921

$$$$
>  <compound>
N#Cc1ccc(NN2C(C(O)C3CCCCC3)C=CC3C(=O)N(c4ccccc4)C(=O)C32)cc1 (stereo unspecified)

>  <observed value>
0.439

$$$$

* * *

The following molecules are shown together with reported composite z-score values.
system: Plasmodium falciparum Sir2 (PF13_0152, Sir2A); test: pfSir2 binders on small-molecule microarrays, primary screen, biochemical, small-molecule microarray, 635 nm fluorescence (AID 1098); conditions: small-molecule microarray binding, fluorescence 635 nm; higher = more signal;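 further: score merges spot fluorescence intensity with its signal-to-noise ratio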

>  <molecule>
O=C1O[C@H](c2ccccc2)[C@H](c2ccccc2)N2[C@H]1[C@@H](C(=O)O)[C@]1(C(=O)Nc3ccc(C#CC4=CCCCC4)cc31)[C@H]2c1ccc(OCCO)cc1

>  <composite z-score>
1.43

$$$$
>  <molecule>
CCOc1cc(C(O)C2C=CC3C(=O)N(c4ccccc4)C(=O)C3N2Nc2ccc([N+](=O)[O-])cc2)ccc1O (configuration not stated)

>  <composite z-score>
1.33

$$$$
>  <molecule>
CC(C)C(=C=CC[C@H](O)c1cccc(OCCO)c1)C[C@H](O)COCc1ccccc1

>  <composite z-score>
0.845

$$$$
>  <molecule>
CC(C)Cc1ccc(CN2CC[C@@H](NS(=O)(=O)c3ccccc3)C2)cc1

>  <composite z-score>
-0.265

$$$$
>  <molecule>
COC(=O)[C@@]1(Cc2ccc(OC)cc2)[C@H]2c3cc(C(=O)N4CCCC4)n(CCc4c[nH]c5cc(F)ccc45)c3C[C@H]2CN1C(=O)c1ccccc1

>  <composite z-score>
1.31

$$$$
>  <molecule>
CC(C)C[C@@H]1NC(=O)[C@H]2C[C@@H](C(=O)NCCCCCCNC(=O)CS)[C@@H](c3cccc(OCCO)c3)N2C1=O

>  <composite z-score>
1.54

$$$$
>  <molecule>
C=C[C@H](COC(C)=O)N(Cc1ccc(OC(C)=O)c(OC)c1)S(=O)(=O)c1ccc(Br)cc1

>  <composite z-score>
0.723

$$$$

* * *

The following compounds are shown together with reported composite z-score values.
target: Carbonic anhydrase 2 (Homo sapiens) (UniProt P00918); experiment: CAII small-molecule binders, profiling panel, biochemical, small-molecule microarray, Alexa647-labelled CAII (AID 1122); conditions: CAII-A647 binding fluorescence, higher = more signal
attribute measured: composite z-score

>  <compound>
Cc1ccccc1C(O)C1C=CC2C(=O)N(C)C(=O)C2N1Nc1ccccc1 (stereo not given)

>  <target desc>
Carbonic anhydrase 2 (Homo sapiens) (UniProt P00918)

>  <observed value>
0.821

$$$$
>  <compound>
CCCC[C@@H]1C[C@H]1[C@@H](NC(=O)c1ccc(-c2ccccc2)cc1)c1ccc(-c2ccccc2)cc1

>  <target desc>
Carbonic anhydrase 2 (Homo sapiens) (UniProt P00918)

>  <observed value>
0.0853

$$$$
>  <compound>
C=CCOC(=O)[C@H]1[C@@H]2C(=O)O[C@@H](c3ccccc3)[C@@H](c3ccccc3)N2[C@@H](c2ccc(OCCOC(=O)[C@@H]3C[C@@H]4C(=O)N5CCC[C@H]5C(=O)N4[C@@H]3c3ccc(O)cc3)cc2)[C@]12C(=O)Nc1ccccc12

>  <target desc>
Carbonic anhydrase 2 (Homo sapiens) (UniProt P00918)

>  <observed value>
0.268

$$$$
>  <compound>
[N-]=[N+]=NCc1ccccc1C[C@@]1(C(=O)NCC(O)CO)N=C(c2ccc(OCCCO)cc2)O[C@@H]1c1ccccc1CN=[N+]=[N-] (stereo not given in full)

>  <target desc>
Carbonic anhydrase 2 (Homo sapiens) (UniProt P00918)

>  <observed value>
0.546

$$$$
>  <compound>
[N-]=[N+]=NCc1ccccc1C[C@]1(C(=O)NCC(O)CO)N=C(c2ccc(OCCCO)cc2)O[C@H]1c1ccccc1N=[N+]=[N-] (stereo not given in full)

>  <target desc>
Carbonic anhydrase 2 (Homo sapiens) (UniProt P00918)

>  <observed value>
0.652

$$$$

* * *

The following compounds are shown together with reported composite z-score values.
assay: binders of probe aFST on microarray, primary screen, stem cell growth factor project, biochemical, small-molecule microarray, fluorescence 635/667 (AID 1086); settings: higher = more signal;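 further: score merges 667 nm fluorescence with signal-to-noise of each printed compound spot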

>  <compound>
COCCOC(=O)N1C(=O)[C@@]2(c3cc(C#CCNC(N)=O)ccc31)[C@H](c1ccccc1OCCO)N1[C@H](c3ccccc3)[C@H](c3ccccc3)OC(=O)[C@H]1[C@@H]2C(N)=O

>  <composite z-score>
0.477

$$$$
>  <compound>
C=C(C(=O)CC[C@H](OC(C)=O)c1ccc(OCCO)cc1)C(C)C

>  <composite z-score>
0.0745

$$$$
>  <compound>
Cc1ccccc1C(O)C1C=CC2C(=O)N(C)C(=O)C2N1N1CCCCC1 (stereo unspecified)

>  <composite z-score>
0.927

$$$$
>  <compound>
CCOC(=O)C[C@H]1[C@H](OC(=O)c2ccc(-c3ccccc3)cc2)[C@@H](NC(=O)c2ccc3ccccc3c2)c2cc(OCCCO)ccc2N1C(=O)Cc1ccc(OC)cc1

>  <composite z-score>
0.628

$$$$
>  <compound>
COC(=O)[C@@]1(Cc2ccccc2)[C@H]2c3cc(C(=O)N4CCCC4)n(C)c3C[C@H]2CN1C(=O)c1ccccc1

>  <composite z-score>
0.882

$$$$
>  <compound>
Cc1ccccc1C(O)C1C=CC2C(=O)N(C)C(=O)C2N1Nc1ccccc1 (stereo unspecified)

>  <composite z-score>
0.842

$$$$
>  <compound>
O=C1O[C@H](c2ccccc2)[C@H](c2ccccc2)N2[C@H]1[C@@H](C(=O)O)[C@]1(C(=O)Nc3ccc(C#CC4(O)CCCCCC4)cc31)[C@H]2c1ccc(OCCO)cc1

>  <composite z-score>
1.07

$$$$
>  <compound>
CCOC(=O)C1=CCC(c2ccc(C#N)cc2)N(S(=O)(=O)c2ccc(C)cc2)C1 (stereo unspecified)

>  <composite z-score>
1.27

$$$$
>  <compound>
Cc1ccc(S[C@]2(C(=O)NCC(C)C)CC(=O)N(Cc3ccccc3Cl)[C@@H]2c2ccc(CO)cc2)cc1

>  <composite z-score>
-0.982

$$$$
>  <compound>
O=C1O[C@@H](c2ccccc2)[C@@H](c2ccccc2)N2[C@@H](c3ccc(O)cc3)[C@]3(C(=O)Nc4ccc(C#CC5=CCCCC5)cc43)[C@@H](C(=O)O)[C@H]12

>  <composite z-score>
0.437

$$$$
>  <compound>
CN1C=C(C(=O)OCCS(C)(=O)=O)C(C(=O)OCCS(C)(=O)=O)=CC(CCCO)=CC1C1CC1 (stereo unspecified)

>  <composite z-score>
-0.0228

$$$$
>  <compound>
O=C(O)[C@@]1(Cc2ccccc2)N=C(c2ccc(OCCCO)cc2)O[C@H]1c1ccccc1

>  <composite z-score>
0.88

$$$$
>  <compound>
COc1ccc(C(O)C2C=CC3C(=O)N(C)C(=O)C3N2Nc2ccccc2)cc1OCc1ccccc1 (stereo unspecified)

>  <composite z-score>
0.346

$$$$
>  <compound>
CC(C)N1C(=O)C[C@@](C(=O)NCc2ccccc2)(c2ccc([N+](=O)[O-])cc2)[C@H]1c1ccc(CO)cc1

>  <composite z-score>
-0.699

$$$$
>  <compound>
CC(C)N1C(=O)c2ccccc2[C@@H](C(=O)NCCCN(C)C)[C@@H]1c1ccc(CO)cc1

>  <composite z-score>
0.908

$$$$
>  <compound>
O=C1[C@]2(CO)C=C(Br)[C@@H](C[C@@H]2c2ccccc2)[C@@]12CO2

>  <composite z-score>
-0.0624

$$$$

* * *

test system: Plasmodium falciparum Sir2 (PF13_0152, Sir2A); assay: pfSir2 binders on small-molecule microarrays, primary screen, biochemical, small-molecule microarray, 635 nm fluorescence (AID 1098); conditions: small-molecule microarray binding, fluorescence 635 nm; higher = more signal;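 further: score merges spot fluorescence intensity with its signal-to-noise ratio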
Values of composite z-score greater than or equal to 1 map to Met; values below map to Not met.

>  <molecule>
CCCN1C(=O)[C@]2(COC(c3ccc(OCCCO)cc3)=N2)Cc2ccccc21

>  <classification>
Met

$$$$
>  <molecule>
CN1C(=O)C2C=CC(C(O)c3ccccn3)N(Nc3ccccc3)C2C1=O (configuration not stated)

>  <classification>
Not met

$$$$
>  <molecule>
C=CCC(OC(C)=O)[C@@H]1[C@@H](N(Cc2cccc3ccccc23)C(=O)c2cccc3ccccc23)c2cc(OCCCO)ccc2N1C(=O)c1ccc2ccccc2n1 (some centres not stated)

>  <classification>
Not met

$$$$
>  <molecule>
Cc1ccc([C@H]2C(C(=O)O)=C[C@@H](C)N2S(=O)(=O)c2ccc(C)cc2)cc1

>  <classification>
Met

$$$$
>  <molecule>
COCCOC(=O)N1C(=O)[C@@]2(c3ccccc31)[C@H](c1ccc(O)cc1)N1[C@H](c3ccccc3)[C@H](c3ccccc3)OC(=O)[C@H]1[C@@H]2C(=O)N1CCc2cc(OC)c(OC)cc2C1

>  <classification>
Met

$$$$
>  <molecule>
Cc1cc(C)c(C(O)C2C=CC3C(=O)N(C)C(=O)C3N2Nc2ccccc2)c(C)c1 (configuration not stated)

>  <classification>
Met

$$$$
>  <molecule>
CO[C@H]1O[C@H](CO)[C@@H](OC(=O)Nc2ccc3c(c2)OCO3)[C@H](OC(=O)Nc2ccccc2)[C@H]1OC(=O)Nc1ccccc1

>  <classification>
Met

$$$$
